Data origin: patent US5674909A

# Target Or System: D2 receptor (Rattus norvegicus, UniProt P61169)
# Sequence (P61169 whole entry): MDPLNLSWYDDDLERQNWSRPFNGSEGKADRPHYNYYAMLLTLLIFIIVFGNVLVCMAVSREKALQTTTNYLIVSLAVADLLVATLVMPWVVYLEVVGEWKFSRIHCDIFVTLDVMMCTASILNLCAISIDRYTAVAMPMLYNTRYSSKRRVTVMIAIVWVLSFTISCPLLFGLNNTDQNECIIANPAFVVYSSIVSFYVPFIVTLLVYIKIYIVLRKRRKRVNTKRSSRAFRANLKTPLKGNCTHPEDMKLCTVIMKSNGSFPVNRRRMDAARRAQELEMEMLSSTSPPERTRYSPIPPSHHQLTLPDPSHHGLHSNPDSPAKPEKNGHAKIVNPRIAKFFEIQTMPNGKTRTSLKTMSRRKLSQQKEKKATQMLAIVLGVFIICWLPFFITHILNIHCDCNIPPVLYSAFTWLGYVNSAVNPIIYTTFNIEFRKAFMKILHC
# Assay Info: biochemical
# Format: binding, rat (Sprague-Dawley)
# Details: [3H]-domperidone 0.3 nM, rat striated membranes, 0.01% BSA, 37° C., 30 minutes; read-out: Affinity [K1 (nM)] towards D2 receptor
Counter-ions that a name gives are not always drawn.
Assay Metric: Ki (nM)

For the compound Br.Br.CCCN(CCCCCCNCCCc1ccc(O)c(O)c1)[C@H]1CCc2c(ccc(O)c2O)C1 [Compound 13, dihydrobromide] , what Ki is on record?
0.4

Also, CCCN(CCCCCCN1CCN(c2ccccc2OC)CC1)[C@H]1CCc2c(ccc(O)c2O)C1 [Compound 3, trihydrochloride] please.
0.31

What about CCCN(CCCCCCOCCc1ccc(O)c(O)c1)[C@H]1CCc2c(ccc(O)c2O)C1.Cl [Compound 25, hydrochloride] ?
0.6

Entry CCCN(CCCCCCNCCOc1ccc(S(C)(=O)=O)cc1)[C@H]1CCc2c(ccc(O)c2O)C1.Cl.Cl [Compound 6, dihydrochloride] please
1.3

A: CCCN(CCCCCCNCCOc1ccccc1[N+](=O)[O-])[C@H]1CCc2c(ccc(O)c2O)C1 [Compound 4, dihydrochloride]
B: CCCN(CCCCCCNCC1COc2ccccc2O1)[C@H]1CCc2c(ccc(O)c2O)C1 (stereo partly drawn) [Compound 1, dihydrochloride]
Field: lower recorded Ki (choose A or B ) State the label of the item chosen.
B
(B: 0.66 nM, A: 1.1 nM)

###

# System: D1 -like (Rabbit Splenic Artery)
# Assay Info: D1-like activity in the Rabbit Splenic Artery (RSA) test
# Details: agonist activity at the peak of the effect; contracted with U46619 0.1 μM
Assay Metric: D1 -like (RSA) potency ratio (EC50 of Ref. A/EC50 of tested compound)

Quick one: D1 -like (RSA) potency ratio (EC50 of Ref. A/EC50 of tested compound) for CCCN(CCCCCCNCCc1ccc(C(N)=O)cc1)[C@H]1CCc2c(ccc(O)c2O)C1.Cl.Cl [Compound 37] ?
5

How about Br.CCCN(CCCCCCNC(=O)Cc1ccc(O)c(O)c1)[C@H]1CCc2c(ccc(O)c2O)C1 [Compound 34] ?
2.5

Please answer likewise for CCCN(CCCCCCNCCc1ccc(NS(C)(=O)=O)cc1)[C@H]1CCc2c(ccc(O)c2O)C1.Cl.Cl [Compound 31]
100

Could you do the same for Br.Br.CCCN(CCCCCCNCCc1ccc(O)c(Cl)c1)[C@H]1CCc2c(ccc(O)c2O)C1 [Compound 11] , please?
25

Cool, now Br.Br.CCCN(CCCCCCN1CCc2cc(O)c(O)cc2C1)[C@H]1CCc2c(ccc(O)c2O)C1 [Compound 10]
1.4

I: Br.Br.CCCN(CCCCCCNCCCc1ccc(O)cc1)[C@H]1CCc2c(ccc(O)c2O)C1 [Compound 9]
II: Br.Br.CCCN(CCCCCCNCCSc1ccc(O)cc1)[C@H]1CCc2c(ccc(O)c2O)C1 [Compound 8]
III: CCCN(CCCCCCNCCc1ccc(C(=O)OC)cc1)[C@H]1CCc2c(ccc(O)c2O)C1.Cl.Cl [Compound 35]
Descending sort on D1 -like (RSA) potency ratio (EC50 of Ref. A/EC50 of tested compound) required. Answer by listing the labels in the order asked for.
I, III, II
(I: 10, III: 2, II: 1)

###

# Tested on: D1 -like (Rabbit Splenic Artery)
# Assay Info: D1-like activity in the Rabbit Splenic Artery (RSA) test
# Details: agonist activity at the peak of the effect; contracted with U46619 0.1 μM
Assay Metric: D1 -like (RSA) potency ratio (EC50 of Ref. A/EC50 of tested compound)

So what does the record say about D1 -like (RSA) potency ratio (EC50 of Ref. A/EC50 of tested compound) for CCCN(CCCCCCNCCc1ccc(CO)cc1)[C@H]1CCc2c(ccc(O)c2O)C1.Cl.Cl [Compound 36] ?
4.5

a: CCCN(CCCCCCNCCOc1ccc(S(C)(=O)=O)cc1)[C@H]1CCc2c(ccc(O)c2O)C1.Cl.Cl [Compound 6]
b: Br.Br.CCCN(CCCCCCNCCCc1ccccc1O)[C@H]1CCc2c(ccc(O)c2O)C1 [Compound 16]
c: Br.Br.CCCN(CCCCCCNCCc1ccc2[nH]c(=O)sc2c1)[C@H]1CCc2c(ccc(O)c2O)C1 [Compound 18]
d: CCCN(CCCCCCNCCc1ccc(OC)c(O)c1)[C@H]1CCc2c(ccc(O)c2O)C1.Cl.Cl [Compound 27]
e: CCCN(CCCCCCNCCc1ccc(NC(C)=O)cc1)[C@H]1CCc2c(ccc(O)c2O)C1.Cl.Cl [Compound 33]
Order by D1 -like (RSA) potency ratio (EC50 of Ref. A/EC50 of tested compound), ascending. Use the labels to give the ranking in the order requested.
b, e, a, d, c

###

# System: D1 -like (Rabbit Splenic Artery)
# Assay Info: D1-like activity in the Rabbit Splenic Artery (RSA) test
# Details: agonist activity at the peak of the effect; contracted with U46619 0.1 μM
# Method: Arterial rings were prepared according to Semeraro et al., Naunyn. Schmied. Arch. Pharmacol., 1990, 342, 539. The arterial preparations were contracted with U46619 (9,11-di-deoxy-11α,9α-epoxy-methanoprostaglandin F2α) at the submaximal concentration 0.1 μM. The tested compounds were cumulatively administered. Ref. A was used as reference substance. Agonist activity evaluated at the peak of the effect and expressed as potency ratio (EC50 of Ref. A/EC50 of tested compound) is reported in table 2.
Assay Metric: D1 -like (RSA) potency ratio (EC50 of Ref. A/EC50 of tested compound)

What reported D1 -like (RSA) potency ratio (EC50 of Ref. A/EC50 of tested compound) corresponds to CCCN(CCCCCCOCCc1ccc(O)c(O)c1)[C@H]1CCc2c(ccc(O)c2O)C1.Cl on D1 -like (Rabbit Splenic Artery)?
1.7

Another compound to look at: Br.Br.CCCN(CCCCCCNCCCc1ccc(O)c(O)c1)[C@H]1CCc2c(ccc(O)c2O)C1
10

Item: Br.Br.CCCN(CCCCCCNCCc1ccc(O)c(C)c1)[C@H]1CCc2c(ccc(O)c2O)C1
33

Continue with CCCN(CCCCCCNCCc1ccc2nc(N)sc2c1)[C@H]1CCc2c(ccc(O)c2O)C1.Cl.Cl.Cl
14

P: CCCN(CCCCCCNCCc1ccc2c(c1)OCO2)[C@H]1CCc2c(ccc(O)c2O)C1.Cl.Cl
Q: Br.Br.CCCN(CCCCCCNCCc1cc(O)cc(Cl)c1)[C@H]1CCc2c(ccc(O)c2O)C1
Kindly identify which of P and Q has the larger recorded D1 -like (RSA) potency ratio (EC50 of Ref. A/EC50 of tested compound) value. Respond using the label that marks the chosen record.
P

A: Br.Br.CCCN(CCCCCCNCCc1ccc2sc(=O)[nH]c2c1)[C@H]1CCc2c(ccc(O)c2O)C1
B: CCCN(CCCCCCNCCc1ccc(S(=O)(=O)O)cc1)[C@H]1CCc2c(ccc(O)c2O)C1.Cl.Cl
Select one: A or B . Criterion: greater recorded D1 -like (RSA) potency ratio (EC50 of Ref. A/EC50 of tested compound). Return value: the label identifying the chosen record.
A
